Values from patent US20260174763A1

System: human pancreatic cancer cell line HPAF-II
assay_protocol: CTG proliferation inhibition, HPAF-II
Format: cell-based
condition_notes: 72 h incubation, read-out: IC50 (nM) of the test compounds for various tumor cell lines
metric_name: IC50 (nM)
A number alone suffices; assume nM.

CC(=O)OC12COC1CC(O)C1(C)C(=O)C(OC(=O)Nc3ccc(C(C)O)cc3)C3=C(C)C(OC(=O)C(O)C(NC(=O)OC(C)(C)C)c4ccccc4)CC(O)(C(OC(=O)c4ccccc4)C21)C3(C)C (centres unmarked) [Compound I-5]
10.7
CC(=O)OC12COC1CC(O)C1(C)C(=O)C(OC(=O)Nc3ccc(C(C)O)cc3)C3=C(C)C(OC(=O)C(O)C(NC(=O)OC(C)(C)C)c4ccccc4)CC(O)(C(OC(=O)c4ccccc4)C21)C3(C)C (centres unmarked) [Compound I-1]
4.45
CC(=O)OC12COC1CC(O)C1(C)C(=O)C(OC(=O)Nc3ccc(C(C)O)cc3)C3=C(C)C(OC(=O)C(O)C(NC(=O)OC(C)(C)C)c4ccccc4)CC(O)(C(OC(=O)c4ccccc4)C21)C3(C)C (centres unmarked) [Compound I-4]
2.18
CC(=O)OC12COC1CC(O)C1(C)C(=O)C(OC(=O)Nc3ccc(C(C)O)cc3)C3=C(C)C(OC(=O)C(O)C(NC(=O)OC(C)(C)C)c4ccccc4)CC(O)(C(OC(=O)c4ccccc4)C21)C3(C)C (centres unmarked) [Compound I-3]
2.22

Next compound, IC50 to be filled in.
For the compound CC(=O)OC12COC1CC(O)C1(C)C(=O)C(OC(=O)Nc3ccc(C(C)O)cc3)C3=C(C)C(OC(=O)C(O)C(NC(=O)OC(C)(C)C)c4ccccc4)CC(O)(C(OC(=O)c4ccccc4)C21)C3(C)C (centres unmarked) [Compound I-6] , the measured IC50 on human pancreatic cancer cell line HPAF-II was 11

====

Listed here are compounds together with their documented IC50.
Test system: human pancreatic cancer cell line SW1990
assay_protocol: CTG proliferation inhibition, SW1990
Format: cell-based
condition_notes: 72 h incubation, read-out: IC50 (nM) of the test compounds for various tumor cell lines
Units required after the number.

Examples with answers:
CC(=O)OC12COC1CC(O)C1(C)C(=O)C(OC(=O)Nc3ccc(C(C)=O)cc3)C3=C(C)C(OC(=O)C(O)C(NC(=O)OC(C)(C)C)c4ccccc4)CC(O)(C(OC(=O)c4ccccc4)C21)C3(C)C (stereo not shown) [II, reference compound]
15.5 nM
CC(=O)OC12COC1CC(O)C1(C)C(=O)C(OC(=O)Nc3ccc(C(C)O)cc3)C3=C(C)C(OC(=O)C(O)C(NC(=O)OC(C)(C)C)c4ccccc4)CC(O)(C(OC(=O)c4ccccc4)C21)C3(C)C (stereo not shown) [Compound I-4]
6.4 nM
CC(=O)OC12COC1CC(O)C1(C)C(=O)C(OC(=O)Nc3ccc(C(C)O)cc3)C3=C(C)C(OC(=O)C(O)C(NC(=O)OC(C)(C)C)c4ccccc4)CC(O)(C(OC(=O)c4ccccc4)C21)C3(C)C (stereo not shown) [Compound I-5]
12.7 nM

Form field IC50, entry CC(=O)OC12COC1CC(O)C1(C)C(=O)C(OC(=O)Nc3ccc(C(C)O)cc3)C3=C(C)C(OC(=O)C(O)C(NC(=O)OC(C)(C)C)c4ccccc4)CC(O)(C(OC(=O)c4ccccc4)C21)C3(C)C (stereo not shown) [Compound I-6] : 12.2 nM

====

System: human esophageal cancer cell line KYSE-410
assay_protocol: CTG proliferation inhibition, KYSE-410
Type: cell-based
condition_notes: 72 h incubation, read-out: IC50 (nM) of the test compounds for various tumor cell lines
metric_name: IC50 (nM)
A number alone suffices; assume nM.

CC(=O)OC12COC1CC(O)C1(C)C(=O)C(OC(=O)Nc3ccc(C(C)O)cc3)C3=C(C)C(OC(=O)C(O)C(NC(=O)OC(C)(C)C)c4ccccc4)CC(O)(C(OC(=O)c4ccccc4)C21)C3(C)C (stereo not shown) [Compound I-1]
1.26
CC(=O)OC12COC1CC(O)C1(C)C(=O)C(OC(=O)Nc3ccc(C(C)O)cc3)C3=C(C)C(OC(=O)C(O)C(NC(=O)OC(C)(C)C)c4ccccc4)CC(O)(C(OC(=O)c4ccccc4)C21)C3(C)C (stereo not shown) [Compound I-2]
0.101
CC(=O)OC12COC1CC(O)C1(C)C(=O)C(OC(=O)Nc3ccc(C(C)O)cc3)C3=C(C)C(OC(=O)C(O)C(NC(=O)OC(C)(C)C)c4ccccc4)CC(O)(C(OC(=O)c4ccccc4)C21)C3(C)C (stereo not shown) [Compound I-8]
0.032

Next molecule, IC50 to be filled in.
For the molecule CC(=O)OC12COC1CC(O)C1(C)C(=O)C(OC(=O)Nc3ccc(C(C)=O)cc3)C3=C(C)C(OC(=O)C(O)C(NC(=O)OC(C)(C)C)c4ccccc4)CC(O)(C(OC(=O)c4ccccc4)C21)C3(C)C (stereo not shown) [II, reference compound] , the measured IC50 on human esophageal cancer cell line KYSE-410 was 0.113

====

Tested on: human esophageal cancer cell line KYSE-150
assay_protocol: CTG proliferation inhibition, KYSE-150
Format: cell-based
condition_notes: 72 h incubation, read-out: IC50 (nM) of the test compounds for various tumor cell lines
Listed here are compounds together with their documented IC50.
A number alone suffices; assume nM.

CC(=O)OC12COC1CC(O)C1(C)C(=O)C(OC(=O)Nc3ccc(C(C)O)cc3)C3=C(C)C(OC(=O)C(O)C(NC(=O)OC(C)(C)C)c4ccccc4)CC(O)(C(OC(=O)c4ccccc4)C21)C3(C)C (stereo not drawn) [Compound I-3]
0.376
CC(=O)OC12COC1CC(O)C1(C)C(=O)C(OC(=O)Nc3ccc(C(C)O)cc3)C3=C(C)C(OC(=O)C(O)C(NC(=O)OC(C)(C)C)c4ccccc4)CC(O)(C(OC(=O)c4ccccc4)C21)C3(C)C (stereo not drawn) [Compound I-6]
0.123
CC(=O)OC12COC1CC(O)C1(C)C(=O)C(OC(=O)Nc3ccc(C(C)O)cc3)C3=C(C)C(OC(=O)C(O)C(NC(=O)OC(C)(C)C)c4ccccc4)CC(O)(C(OC(=O)c4ccccc4)C21)C3(C)C (stereo not drawn) [Compound I-5]
0.808
CC(=O)OC12COC1CC(O)C1(C)C(=O)C(OC(=O)Nc3ccc(C(C)=O)cc3)C3=C(C)C(OC(=O)C(O)C(NC(=O)OC(C)(C)C)c4ccccc4)CC(O)(C(OC(=O)c4ccccc4)C21)C3(C)C (stereo not drawn) [II, reference compound]
1.9
CC(=O)OC12COC1CC(O)C1(C)C(=O)C(OC(=O)Nc3ccc(C(C)O)cc3)C3=C(C)C(OC(=O)C(O)C(NC(=O)OC(C)(C)C)c4ccccc4)CC(O)(C(OC(=O)c4ccccc4)C21)C3(C)C (stereo not drawn) [Compound I-7]
0.972
CC(=O)OC12COC1CC(O)C1(C)C(=O)C(OC(=O)Nc3ccc(C(C)O)cc3)C3=C(C)C(OC(=O)C(O)C(NC(=O)OC(C)(C)C)c4ccccc4)CC(O)(C(OC(=O)c4ccccc4)C21)C3(C)C (stereo not drawn) [Compound I-1]
1.99
CC(=O)OC12COC1CC(O)C1(C)C(=O)C(OC(=O)Nc3ccc(C(C)O)cc3)C3=C(C)C(OC(=O)C(O)C(NC(=O)OC(C)(C)C)c4ccccc4)CC(O)(C(OC(=O)c4ccccc4)C21)C3(C)C (stereo not drawn) [Compound I-2]
1.75
CC(=O)OC12COC1CC(O)C1(C)C(=O)C(OC(=O)Nc3ccc(C(C)O)cc3)C3=C(C)C(OC(=O)C(O)C(NC(=O)OC(C)(C)C)c4ccccc4)CC(O)(C(OC(=O)c4ccccc4)C21)C3(C)C (stereo not drawn) [Compound I-4]
0.726

For the compound CC(=O)OC12COC1CC(O)C1(C)C(=O)C(OC(=O)Nc3ccc(C(C)O)cc3)C3=C(C)C(OC(=O)C(O)C(NC(=O)OC(C)(C)C)c4ccccc4)CC(O)(C(OC(=O)c4ccccc4)C21)C3(C)C (stereo not drawn) [Compound I-8] , the measured IC50 on human esophageal cancer cell line KYSE-150 was 1.7

====

Tested on: human pancreatic cancer cell line PANC-1
assay_protocol: CTG proliferation inhibition, PANC-1
Format: cell-based
condition_notes: 72 h incubation, read-out: IC50 (nM) of the test compounds for various tumor cell lines
Define the label as yes (1) when IC50 is strictly less than 0.9 nM and as no (0) in all remaining cases.

CC(=O)OC12COC1CC(O)C1(C)C(=O)C(OC(=O)Nc3ccc(C(C)O)cc3)C3=C(C)C(OC(=O)C(O)C(NC(=O)OC(C)(C)C)c4ccccc4)CC(O)(C(OC(=O)c4ccccc4)C21)C3(C)C (centres unmarked) [Compound I-5]
no (0)
CC(=O)OC12COC1CC(O)C1(C)C(=O)C(OC(=O)Nc3ccc(C(C)O)cc3)C3=C(C)C(OC(=O)C(O)C(NC(=O)OC(C)(C)C)c4ccccc4)CC(O)(C(OC(=O)c4ccccc4)C21)C3(C)C (centres unmarked) [Compound I-4]
yes (1)

Qu. Answer whether the molecule CC(=O)OC12COC1CC(O)C1(C)C(=O)C(OC(=O)Nc3ccc(C(C)O)cc3)C3=C(C)C(OC(=O)C(O)C(NC(=O)OC(C)(C)C)c4ccccc4)CC(O)(C(OC(=O)c4ccccc4)C21)C3(C)C (centres unmarked) [Compound I-8] has IC50 strictly less than 0.9 nM
Ans. yes (1)

Qu. Answer whether the molecule CC(=O)OC12COC1CC(O)C1(C)C(=O)C(OC(=O)Nc3ccc(C(C)O)cc3)C3=C(C)C(OC(=O)C(O)C(NC(=O)OC(C)(C)C)c4ccccc4)CC(O)(C(OC(=O)c4ccccc4)C21)C3(C)C (centres unmarked) [Compound I-2] has IC50 strictly less than 0.9 nM
Ans. no (0)
